# targetUnderTest: T1, hiR2-FL-S561A-T7 (human, UniProt Q6PJF5 1-856)
# T1 sequence: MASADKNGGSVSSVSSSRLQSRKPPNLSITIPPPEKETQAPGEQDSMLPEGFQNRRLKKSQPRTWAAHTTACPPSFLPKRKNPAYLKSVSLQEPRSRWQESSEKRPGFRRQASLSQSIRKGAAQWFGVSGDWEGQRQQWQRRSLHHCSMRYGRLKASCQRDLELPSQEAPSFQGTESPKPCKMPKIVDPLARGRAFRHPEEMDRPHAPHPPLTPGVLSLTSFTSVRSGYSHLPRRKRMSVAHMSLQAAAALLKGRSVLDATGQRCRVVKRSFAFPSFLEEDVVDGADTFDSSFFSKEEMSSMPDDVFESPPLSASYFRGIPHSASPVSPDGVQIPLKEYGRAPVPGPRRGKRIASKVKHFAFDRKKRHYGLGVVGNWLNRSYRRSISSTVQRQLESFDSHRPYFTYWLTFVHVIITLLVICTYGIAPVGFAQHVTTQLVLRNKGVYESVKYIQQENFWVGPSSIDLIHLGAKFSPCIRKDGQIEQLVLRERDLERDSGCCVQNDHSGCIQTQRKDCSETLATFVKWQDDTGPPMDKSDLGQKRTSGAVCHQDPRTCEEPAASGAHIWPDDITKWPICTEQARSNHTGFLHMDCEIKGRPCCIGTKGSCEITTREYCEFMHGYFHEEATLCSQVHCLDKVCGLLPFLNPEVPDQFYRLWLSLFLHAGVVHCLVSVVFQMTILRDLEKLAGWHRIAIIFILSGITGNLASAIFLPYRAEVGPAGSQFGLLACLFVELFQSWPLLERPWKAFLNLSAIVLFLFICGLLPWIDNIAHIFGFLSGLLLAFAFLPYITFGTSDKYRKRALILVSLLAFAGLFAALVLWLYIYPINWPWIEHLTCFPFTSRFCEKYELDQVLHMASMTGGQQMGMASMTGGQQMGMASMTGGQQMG
# assayComment: FACS on MEF-DKO cells expressing the variant, 3 µg/ml antibody
observationType: loss of binding vs wild type

For antibody 22 (antibody, V domains shown, mouse IgG, kappa light chain; also called clone #22; purified antibody 22) VH: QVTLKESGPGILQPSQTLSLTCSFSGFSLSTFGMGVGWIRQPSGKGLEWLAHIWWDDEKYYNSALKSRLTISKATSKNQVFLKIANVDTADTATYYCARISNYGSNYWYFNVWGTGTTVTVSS VL: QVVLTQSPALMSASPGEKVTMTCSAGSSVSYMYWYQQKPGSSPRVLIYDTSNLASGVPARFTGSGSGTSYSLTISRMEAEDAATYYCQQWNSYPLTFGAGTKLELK the binder record lists loss of binding vs wild type as ≥ 30%
